The entries below are paired with their reported EC50.
# System: rat HEV replicon LA-B350/luc
# Protocol summary: antiviral activity against rat HEV replicon LA-B350/luc in Huh7 cells (Gaussia luciferase)
# Type: cell-based
# Reported conditions: Huh-7, 72 h, 3 days, 50% reduction in Luc signal, two experiments
Give the value in nM but do not write nM after it.

Record excerpt, results attached:
1) CCOc1nc(N)nc2c1ncn2[C@@H]1O[C@]2(F)CO[P@@](=O)(N[C@H](C)C(=O)OC(C)C)O[C@H]2[C@@]1(C)F : 860
2) C=CCOP1(=O)OC[C@@]2(F)O[C@@H](n3cnc4c(OCC)nc(N)nc43)[C@](C)(F)[C@@H]2O1 (stereo partly drawn) : 5700

For CC(C)OC(=O)[C@H](C)N[P@](=O)(OC[C@@]1(F)O[C@@H](n2ccc(=O)[nH]c2=O)[C@](C)(O)[C@@H]1O)Oc1ccccc1 the compound record lists EC50 as 110

For CCOc1nc(N)nc2c1ncn2[C@@H]1O[C@](F)(COP(=O)(N[C@@H](C)C(=O)OC2CCCCC2)Oc2ccccc2)[C@@H](O)[C@@]1(C)O (stereo partly drawn) the compound record lists EC50 as 8.9

For CCOc1nc(N)nc2c1ncn2[C@@H]1O[C@](F)(COP(=O)(N[C@@H](C)C(=O)OC(C)C)Oc2ccccc2)[C@@H](O)[C@@]1(C)F (stereo partly drawn) the compound record lists EC50 as 36
